# Test system: Dengue-2 (Strain New Guinea C)
# PROCEDURE SUMMARY: Viral yield assay against Dengue-2 in Vero cells
# Format: cell-based, Dengue virus
# CONDITIONS: Dengue virus; Vero cells, MOI 0.1, harvested 48 hours post infection; read-out: Activity (EC50 class) against Dengue-2 Virus in Vero cells
MEASURE: EC50

{"columns": ["COMPOUND", "EC50"],
 "data": [
  ["CCOC(=O)N1CCC(NC(=O)c2sc3nc4c(cc3c2N)CN(CC)CC4)CC1 [Compound 275]", "> 25 µM"],
  ["COc1ccc(-c2cc(-c3ccc(F)cc3)nc3sc(C(N)=O)c(N)c23)cc1OC [Compound 54]", "< 5 µM"],
  ["CN1CCc2nc3sc(C(=O)NCCc4c[nH]c5ccccc45)c(N)c3cc2C1 [Compound 32]", "< 5 µM"],
  ["N#Cc1cc2c(N)c(C(=O)Nc3ccc(Cl)c(Cl)c3)sc2nc1N [Compound 129]", "> 25 µM"],
  ["CC(=O)c1ccc(NC(=O)c2sc3nc4c(cc3c2N)CN(C)CC4)cc1 [Compound 43]", "< 5 µM"],
  ["CCc1nnc(NC(=O)c2sc3nc(C)cc(COC)c3c2N)s1 [Compound 137]", "> 25 µM"],
  ["COc1ccc(-c2c(C#N)c(N)nc3sc(C(=O)Nc4ccc(F)cc4)c(N)c23)cc1OC [Compound 84]", "5 to 25 µM"]
]}

Now consider the entry below.
-- ask Supply recorded EC50 for Cc1cc(C(F)(F)F)c2c(N)c(C(=O)Nc3cccc4ccccc34)sc2n1 [Compound 128] here.
-- reply > 25 µM
